Numbers sourced from patent US20210230570.

experimental system: Factor X (FX), P00742
Sequence (P00742 whole entry, looked up): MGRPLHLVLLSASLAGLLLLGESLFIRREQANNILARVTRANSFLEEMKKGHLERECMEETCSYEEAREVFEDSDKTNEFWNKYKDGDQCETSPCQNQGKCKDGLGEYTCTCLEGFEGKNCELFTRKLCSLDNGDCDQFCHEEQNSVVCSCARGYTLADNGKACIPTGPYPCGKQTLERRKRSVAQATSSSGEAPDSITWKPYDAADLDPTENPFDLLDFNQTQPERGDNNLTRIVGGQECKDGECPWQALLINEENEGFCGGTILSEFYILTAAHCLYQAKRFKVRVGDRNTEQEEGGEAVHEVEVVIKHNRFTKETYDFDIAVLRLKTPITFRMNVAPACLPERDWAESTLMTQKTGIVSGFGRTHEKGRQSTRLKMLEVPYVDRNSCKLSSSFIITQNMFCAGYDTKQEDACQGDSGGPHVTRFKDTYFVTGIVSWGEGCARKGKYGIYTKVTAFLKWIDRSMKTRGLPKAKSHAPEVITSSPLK
value type: kcat/KM for FX activation (Xase assay with FVIIIa, PC/PS vesicles, Ca2+)

(Q) # lookup: kcat/KM for FX activation (Xase assay with FVIIIa, PC/PS vesicles, Ca2+) of FIXa-D203N/F205T/R338A (protein) chain 1: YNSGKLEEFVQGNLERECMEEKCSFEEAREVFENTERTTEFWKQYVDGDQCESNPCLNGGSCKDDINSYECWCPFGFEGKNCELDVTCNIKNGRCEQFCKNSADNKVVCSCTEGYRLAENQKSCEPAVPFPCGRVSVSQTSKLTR chain 2: VVGGEDAKPGQFPWQVVLNGKVNATCGGSIVNEKWIVTAAHCVETGVKITVVAGEHNIEETEHTEQKRNVIRIIPHHNYNAAINKYNHDIALLELDEPLVLNSYVTPICIADKEYTNIFLKFGSGYVSGWGRVFHKGRSALVLQYLRVPLVDRATCLASTKFTIYNNMFCAGFHEGGRDSCQGDSGGPHVTEVEGTSFLTGIISWGEECAMKGKYGIYTKVSRYVNWIKEKTKLT
(A) 6.2e+07 M⁻¹ s⁻¹
